// TGI lookup, one value per entry
- Tested on: HOP-18 NSCLC
- experimentNotes: NCI tumour cell line growth inhibition, 48 h
assayReadout: TGI

[[record]]
molecule = "COc1ccc(/C=C\\c2cc(OC)c(OC)c(OC)c2)cc1OCC(=O)O"
recordedvalue = "> 100 µM"

[[record]]
molecule = "C=CC1(C)CC(=O)C2(O)C(C)(O1)C(OC(C)=O)C(O)C1C(C)(C)CCC(O)C12C (stereo unspecified)"
recordedvalue = "> 138 µM"

[[record]]
molecule = "O[C@H]1[C@H](O)[C@@H](O)CN2CC[C@H](O)[C@H]12"
recordedvalue = "> 100 µM"

[[record]]
molecule = "Oc1oc(C(=C2N=c3ccccc3=N2)c2ccc(Cl)cc2)c(O)c1-c1ccc(Cl)cc1"
recordedvalue = "> 100 µM"

[[record]]
molecule = "O=c1[nH]c(=O)n(C2CC(O)C(CO)O2)cc1OS(=O)(=O)C(F)(F)F (stereo unspecified)"
recordedvalue = "> 100 µM"

[[record]]
molecule = "FC(F)(F)c1ccc2nc(NCc3ccccc3)c(-c3ccccc3)nc2c1"
recordedvalue = "> 100 µM"


###

Reported TGI by item:
- Tested on: SK-MEL-28 melanoma
- experimentNotes: NCI tumour cell line growth inhibition, 48 h
assayReadout: TGI

[[record]]
compound = "CNc1nc(N)nc(Nc2ccc(I)cc2)c1N=O"
assayreadout = "TGI"
recordedvalue = "> 100 µM"

[[record]]
compound = "O=[N+]([O-])c1ccccc1N=Nc1c(O)[nH]c2c(Cl)cc(Cl)cc12"
assayreadout = "TGI"
recordedvalue = "> 100 µM"

[[record]]
compound = "CCCCNCCCNCCCNC(=O)c1csc(-c2csc(CCNC(=O)C(NC(=O)C(C)C(O)C(C)NC(=O)C(NC(=O)c3nc(C(CC(N)=O)NCC(N)C(N)=O)nc(N)c3C)C(OC3OC(CO)C(O)C(O)C3OC3OC(CO)C(O)C(OC(N)=O)C3O)c3cnc[nH]3)C(C)O)n2)n1 (configuration not stated)"
assayreadout = "TGI"
recordedvalue = "> 75.7 µM"

[[record]]
compound = "Cc1cc(OP2(=O)NCc3ncccc3O2)ccc1Cl (configuration not stated)"
assayreadout = "TGI"
recordedvalue = "> 100 µM"

[[record]]
compound = "CCC(C)(C)n1c(C)nc2c1C(=O)c1ccccc1C2=O"
assayreadout = "TGI"
recordedvalue = "> 100 µM"

[[record]]
compound = "Cn1ncc2c(NCc3ccccc3)ncnc21"
assayreadout = "TGI"
recordedvalue = "> 100 µM"

[[record]]
compound = "O=C(O)C(O)C(O)C(O)C(O)CO (configuration not stated)"
assayreadout = "TGI"
recordedvalue = "> 100 µM"

[[record]]
compound = "Cc1cc(C)nc(NC(=S)Nc2ccc([N+](=O)[O-])cc2)c1"
assayreadout = "TGI"
recordedvalue = "> 100 µM"

[[record]]
compound = "CCOC(=O)CC/C(=N/Nc1ccc(Cl)cc1[N+](=O)[O-])C(=O)OCC"
assayreadout = "TGI"
recordedvalue = "> 100 µM"

[[record]]
compound = "CCOC(=O)Cc1csc(Nc2ccccc2[N+](=O)[O-])n1"
assayreadout = "TGI"
recordedvalue = "> 100 µM"

[[record]]
compound = "Clc1ccc(C=NC23CC4CC(CC(C4)C2)C3)c(Cl)c1"
assayreadout = "TGI"
recordedvalue = "> 10 µM"

[[record]]
compound = "c1ccc(C2=NOC(c3ccccc3)N2C23CC4CC(CC(C4)C2)C3)cc1 (configuration not stated)"
assayreadout = "TGI"
recordedvalue = "> 10 µM"


###

- Test system: NCI-H522 lung
- experimentNotes: NCI tumour cell line growth inhibition, 48 h
Listing of recorded TGI by entry.
assayReadout: TGI

[[record]]
molecule = "Clc1ccc(C=NC23CC4CC(CC(C4)C2)C3)c(Cl)c1"
assayreadout = "TGI"
recordedvalue = "> 10 µM"

[[record]]
molecule = "COc1cc(/C=C2\\CCCCC3=C2N=C2SC(C)=CN2C3c2cc(OC)c(OC)c(OC)c2)cc(OC)c1OC (centres undefined)"
assayreadout = "TGI"
recordedvalue = "> 100 µM"

[[record]]
molecule = "O=C(O)C(O)C(O)C(O)C(O)CO (centres undefined)"
assayreadout = "TGI"
recordedvalue = "> 100 µM"

[[record]]
molecule = "Nc1nc(Cl)nc2c1ncn2C1CC(O)C(CO)O1 (centres undefined)"
assayreadout = "TGI"
recordedvalue = "> 100 µM"


###

- System: CAKI-1 renal
- experimentNotes: NCI tumour cell line growth inhibition, 48 h
assayReadout: TGI

[[record]]
structureassmiles = "COc1ccc(Cl)cc1NC(=O)c1ccc(NC2=C(Cl)C(=O)N(Cc3ccccc3)C2=O)cc1"
recordedvalue = "> 100 µM"

[[record]]
structureassmiles = "COc1cc2c3c(n(C)c(=O)c2cc1OC)-c1cc2c(cc1C3=O)OCO2"
recordedvalue = "> 53.1 µM"

[[record]]
structureassmiles = "C[N+](C)(C)CC(=O)N/N=C(/Cc1cc(=O)oc2cc(O)ccc12)C(=O)Nc1ccc(Cl)cc1"
recordedvalue = "> 100 µM"


###

- Tested on: T-47D breast
- experimentNotes: NCI tumour cell line growth inhibition, 48 h
assayReadout: TGI (µM)

[[record]]
compound = "C=C(CN(C)Cc1ccccc1)c1ccc(NC(=O)c2ccc(C(=C)CN(C)Cc3ccccc3)cc2)cc1"
assayreadout = "TGI"
valuecomparator = "="
recordedvalue = 87.4

[[record]]
compound = "COc1cc(Nc2ccc3c(c2)CCC3)nc(OC)n1"
assayreadout = "TGI"
valuecomparator = ">"
recordedvalue = 100

[[record]]
compound = "CCCCOCCOC1=C(Cl)C(=O)c2c(O)ccc(O)c2C1=O"
assayreadout = "TGI"
valuecomparator = "="
recordedvalue = 4.07

[[record]]
compound = "CNc1[nH]c(=S)nc2sc3c(c12)CCCC3"
assayreadout = "TGI"
valuecomparator = ">"
recordedvalue = 75

[[record]]
compound = "CCN(CC)c1ccc(/C=C/c2ccnc3ccccc23)cc1"
assayreadout = "TGI"
valuecomparator = ">"
recordedvalue = 100

[[record]]
compound = "COc1ccc(CNc2c3ccccc3nc3ccccc23)cc1F"
assayreadout = "TGI"
valuecomparator = "="
recordedvalue = 21.5

[[record]]
compound = "O=C1C(=Nc2ccc(Nc3ccccc3)cc2)Oc2ccccc21"
assayreadout = "TGI"
valuecomparator = "="
recordedvalue = 9.57

[[record]]
compound = "CCOc1c(OC)cc(-c2nc3n(n2)C(=O)C(CC)S3)cc1OC (stereo not given)"
assayreadout = "TGI"
valuecomparator = ">"
recordedvalue = 10

[[record]]
compound = "O=C(CNc1ccc(Cl)cc1Cl)Nn1c(-c2ccccc2)nc2ccccc2c1=O"
assayreadout = "TGI"
valuecomparator = "="
recordedvalue = 38.5

[[record]]
compound = "COc1cc2c3c(n(C)c(=O)c2cc1OC)-c1cc2c(cc1C3=O)OCO2"
assayreadout = "TGI"
valuecomparator = "="
recordedvalue = 57.3

[[record]]
compound = "COc1nc(=O)n(C2C=CC(=O)O2)cc1F (stereo not given)"
assayreadout = "TGI"
valuecomparator = "="
recordedvalue = 7.24

[[record]]
compound = "C=C(C)CNCCN"
assayreadout = "TGI"
valuecomparator = ">"
recordedvalue = 100

[[record]]
compound = "CNCCCNc1ccnc2cc(Cl)ccc12"
assayreadout = "TGI"
valuecomparator = ">"
recordedvalue = 100

[[record]]
compound = "O=c1[nH]c(O)c(C=Nc2ccc(-c3nc4ccccc4o3)cc2)c(=O)[nH]1"
assayreadout = "TGI"
valuecomparator = ">"
recordedvalue = 100

[[record]]
compound = "Cc1ccsc1/C=N/Nc1cnccn1"
assayreadout = "TGI"
valuecomparator = ">"
recordedvalue = 100

[[record]]
compound = "Cc1ccc2c(c1)c1ccc3c(c1n2C)C(=O)C=CC3=O"
assayreadout = "TGI"
valuecomparator = "="
recordedvalue = 5.08

[[record]]
compound = "CN1CCN(Cc2cc3c(nn2)-c2ccccc2C3=O)CC1"
assayreadout = "TGI"
valuecomparator = ">"
recordedvalue = 100

[[record]]
compound = "NC(=O)c1cc(I)ccc1NC(=O)/C=C/c1ccccc1"
assayreadout = "TGI"
valuecomparator = ">"
recordedvalue = 65.7

[[record]]
compound = "Clc1ccc(C=NC23CC4CC(CC(C4)C2)C3)c(Cl)c1"
assayreadout = "TGI"
valuecomparator = ">"
recordedvalue = 10

[[record]]
compound = "CO[C@@H]1CC[C@]2(C)OC[C@H](C)[C@@H]3C[C@@H](C)[C@@H](OC(C)=O)[C@@H]4[C@H]3[C@@H]2O[C@H]4C[C@@]1(C)O"
assayreadout = "TGI"
valuecomparator = ">"
recordedvalue = 100


###

- Tested on: TK-10 renal
- experimentNotes: NCI tumour cell line growth inhibition, 48 h
Overview of reported TGI across a group of compounds:
assayReadout: TGI

[[record]]
compound = "CCN(CC)c1ccc(/C=C/c2ccnc3ccccc23)cc1"
measurementtarget = "TK-10 renal"
assayreadout = "TGI"
recordedvalue = "> 100 µM"

[[record]]
compound = "N#CC(c1ccccc1)N(CCOCCOCCN(C(=O)c1ccccc1)C(C#N)c1ccccc1)C(=O)c1ccccc1 (stereo not drawn)"
measurementtarget = "TK-10 renal"
assayreadout = "TGI"
recordedvalue = "> 100 µM"

[[record]]
compound = "Cc1nc2c(N)ncnc2o1"
measurementtarget = "TK-10 renal"
assayreadout = "TGI"
recordedvalue = "> 100 µM"

[[record]]
compound = "COC(=N)c1csc(C2OC(CO)C(O)C2O)n1 (stereo not drawn)"
measurementtarget = "TK-10 renal"
assayreadout = "TGI"
recordedvalue = "> 100 µM"

[[record]]
compound = "CC(C)(C)N=C(N)NC#N"
measurementtarget = "TK-10 renal"
assayreadout = "TGI"
recordedvalue = "> 100 µM"

[[record]]
compound = "COC(=O)C1=CN(CC2=CC(=O)C(C)=CC2=O)C=C(C(=O)OC)C1c1ccccc1OC"
measurementtarget = "TK-10 renal"
assayreadout = "TGI"
recordedvalue = "35.4 µM"

[[record]]
compound = "CC(C)(CO)CNc1nc(N)nc(Cl)c1/C=N/O"
measurementtarget = "TK-10 renal"
assayreadout = "TGI"
recordedvalue = "> 100 µM"

[[record]]
compound = "CCCCCCCC(=O)OCC1OC(n2cc(F)c(=O)[nH]c2=O)C(N)C(OC(=O)CCCCCCC)C1O (stereo not drawn)"
measurementtarget = "TK-10 renal"
assayreadout = "TGI"
recordedvalue = "56.9 µM"

[[record]]
compound = "C=C(C)[C@H]1C2=CC(C(=O)OC)=C(C[C@H](C(=C)C)[C@@H](O)[C@@H](O)C3=C[C@H]1OC3=O)O2"
measurementtarget = "TK-10 renal"
assayreadout = "TGI"
recordedvalue = "> 100 µM"

[[record]]
compound = "COc1cc2c3c(n(C)c(=O)c2cc1OC)-c1cc2c(cc1C3=O)OCO2"
measurementtarget = "TK-10 renal"
assayreadout = "TGI"
recordedvalue = "> 100 µM"

[[record]]
compound = "O=Cc1cc2c(cc1-c1cc3c(cc1C=O)OCO3)OCO2"
measurementtarget = "TK-10 renal"
assayreadout = "TGI"
recordedvalue = "> 100 µM"

[[record]]
compound = "CC1=C(C#N)c2nc3ccccc3n2C(=O)C1(C)CCO (stereo not drawn)"
measurementtarget = "TK-10 renal"
assayreadout = "TGI"
recordedvalue = "> 100 µM"

[[record]]
compound = "Cc1cc(C)nc(NS(=O)(=O)c2ccc(Nc3c4ccccc4nc4c(C(=O)N5CCN(CCO)CC5)cccc34)cc2)n1"
measurementtarget = "TK-10 renal"
assayreadout = "TGI"
recordedvalue = "> 100 µM"

[[record]]
compound = "CC(=O)N/C(=C\\c1ccccc1/C=C(\\NC(C)=O)c1nc2cc(C)c(C)cc2[nH]1)c1nc2cc(C)c(C)cc2[nH]1"
measurementtarget = "TK-10 renal"
assayreadout = "TGI"
recordedvalue = "> 100 µM"

[[record]]
compound = "Clc1ccc(C=NC23CC4CC(CC(C4)C2)C3)c(Cl)c1"
measurementtarget = "TK-10 renal"
assayreadout = "TGI"
recordedvalue = "> 10 µM"

[[record]]
compound = "COc1cc(C[P+](c2ccccc2)(c2ccccc2)c2ccccc2)cc(OC)c1OC"
measurementtarget = "TK-10 renal"
assayreadout = "TGI"
recordedvalue = "> 100 µM"

[[record]]
compound = "CC[C@]1(O)C[C@H]2CN(CCc3c([nH]c4ccccc34)C(C(=O)OC)(c3cc4c(cc3OC)N(C)[C@H]3[C@@](O)(C(=O)OC)[C@H](OC(C)=O)[C@]5(CC)[C@@H]6C[C@@H]6CN6CC[C@]43[C@@H]65)C2)C1 (stereo partly drawn)"
measurementtarget = "TK-10 renal"
assayreadout = "TGI"
recordedvalue = "5.62 µM"

[[record]]
compound = "CC1(C)CCc2c(ccc(C(=O)/C=C/c3ccc(O)cc3)c2O)O1"
measurementtarget = "TK-10 renal"
assayreadout = "TGI"
recordedvalue = "20 µM"

[[record]]
compound = "CCN(Cc1c(F)cccc1OC)c1ccc(CO)c(Cl)c1"
measurementtarget = "TK-10 renal"
assayreadout = "TGI"
recordedvalue = "0.0536 µM"

[[record]]
compound = "c1ccc(C2=NOC(c3ccccc3)N2C23CC4CC(CC(C4)C2)C3)cc1 (stereo not drawn)"
measurementtarget = "TK-10 renal"
assayreadout = "TGI"
recordedvalue = "> 10 µM"

[[record]]
compound = "C=C1C(=O)[C@@]23CC[C@@H]4[C@@]5(C)CCC[C@@]4(OC5=O)[C@@]2(C)CC[C@@H]1C3"
measurementtarget = "TK-10 renal"
assayreadout = "TGI"
recordedvalue = "2.44 µM"

[[record]]
compound = "Cc1nc2sccn2c1-c1nc2sccn2c1/C=C1/C(=O)Nc2ccccc21"
measurementtarget = "TK-10 renal"
assayreadout = "TGI"
recordedvalue = "> 100 µM"

[[record]]
compound = "CNc1nncc2[nH]cnc12"
measurementtarget = "TK-10 renal"
assayreadout = "TGI"
recordedvalue = "> 100 µM"

